System: HCT116
Experiment: AC50 cell viability (CellTiter-Glo); higher = less potent
Conditions: 48 h
As shown below, each of these compounds has a reported log10(AC50 cell viability) value.
Reminder: these figures are log10 of reported AC50 cell viability, in µM before transformation.

Q. Recorded log10(AC50 cell viability) for CNC(=O)[C@H]1O[C@@H](n2cnc3c(NCc4cccc(I)c4)nc(Cl)nc32)[C@H](O)[C@@H]1O with HCT116, please?
A. 1.37

Q. Try this compound next: COc1ccc2c(c1OC)C(=O)O[C@H]2[C@H]1c2c(cc3c(c2OC)OCO3)CCN1C
A. 1.17

Q. Try this compound next: CN1c2ccccc2C(=O)N2CCc3c([nH]c4ccccc34)C21 (configuration not stated)
A. 0.22

Q. Try this compound next: c1cncc(CN2CCC(n3ncc4c(N5CCOCC5)nc(-c5ccc6[nH]ccc6c5)nc43)CC2)c1
A. 0.77

Q. Try this compound next: CCc1cncnc1N1CCN(Cc2nc3cc(C(F)(F)F)ccc3[nH]2)CC1
A. 1.17

Q. Try this compound next: CN(C)CC[C@H](CSc1ccccc1)Nc1ccc([S+](=O)([O-])NC(=O)c2ccc(N3CCN(Cc4ccccc4-c4ccc(Cl)cc4)CC3)cc2)cc1[N+](=O)[O-]
A. 1.32

Q. Try this compound next: CCOC(=N)c1nc2ccc3ncnc(Nc4cc(F)c(F)cc4Cl)c3c2s1
A. 0.67

###

System: HCT116
Test: efficacy (fitted maximal change in viability relative to DMSO control); higher = less cytotoxic (negative = loss of viability)
Details: 48 h
As shown below, each of these compounds has a reported efficacy value.
Give just the numeric value; % need not be written.

> print(dat)
                                   compound  observation.type  measurement.unit  observed.measurement
1  Cc1cc(C)c2c(c1)[C@@H](N(Cc1cc(C(F)(F)F)cc(C(F)(F)F)c1)c1nnn(C)n1)CCCN2C[C@H]1CC[C@H](C(=O)O)CC1          efficacy                 %                 -31.2
2  O=C(O)CCCCN(CCc1ccccc1OCc1ccc(CCc2ccccc2)cc1)Cc1ccc(C(=O)O)cc1 [Cinaciguat]          efficacy                 %                 -11.7
3  CN(C)Cc1c(C(=O)NCCOc2ccc(C(=O)NO)cc2)oc2ccccc12 [Abexinostat]          efficacy                 %                 -91.9

Q. For NC(=O)/C(=C/n1cnc(-c2cc(C(F)(F)F)cc(C(F)(F)F)c2)n1)c1cncnc1 [Eltanexor] , what is its reported efficacy?
A. -78.9

###

Tested on: HCT116
Assay: efficacy (fitted maximal change in viability relative to DMSO control); higher = less cytotoxic (negative = loss of viability)
Conditions: 48 h
observation-type: efficacy (%)
Give just the numeric value; % need not be written.

compound	assay-system	observed-measurement
CC/C(=C(/CC)c1ccc(O)cc1)c1ccc(O)cc1	HCT116	-47.2

Q. For C=CC(=O)N[C@H]1CCOC[C@H]1Nc1ncc2cc(-c3c(Cl)c(OC)cc(OC)c3Cl)ccc2n1 , what is its reported efficacy?
A. -30.8

Q. Try this compound next: CCN(CC)CCCC(C)Nc1c2ccc(Cl)cc2nc2ccc(OC)cc12.Cl.Cl.O.O (stereo unspecified)
A. -90.5

Q. Try this compound next: N#Cc1ccc(C2CCCc3cncn32)cc1 (stereo unspecified)
A. -10.8

Q. Try this compound next: CN1CCC(C1CO)C2=C(O)C=C(O)C3=C2O\C(=C/C3=O)C4=CC=CC=C4Cl (stereo unspecified)
A. -73.4

Q. Try this compound next: CO[C@H]1CC[C@H](N2C(=O)CNc3ncc(-c4ccc(C(C)(C)O)nc4)nc32)CC1
A. -85.5

Q. Try this compound next: C[C@@H]1CC2C3C[C@H](F)C\4=C\C(=O)\C=C/[C@]4(C)[C@@]3(F)[C@@H](O)C[C@]2(C)[C@@]1(OC(=O)C5=CC=CO5)C(=O)SCF (stereo partly specified) [Fluticasone furoate]
A. -76.9

Q. Try this compound next: C\C1=C(/C)C(=O)\C(=C(\C)C1=O)C(CCCCCC(O)=O)C2=CC=CC=C2 (stereo unspecified)
A. -11.8
